B1: NLV3 TCR beta chain (CDR3β only) (parent)
chain: ASSPTGGSPSPLH
partner: NLCPMVATV

Variants of: B1
Assay: T-Switch: Jurkat TCRβ−/− cells expressing a CDR3 saturation-mutagenesis library, stained with two peptide-HLA-A*02:01 tetramers (original and novel peptide) plus anti-CD3, FACS-sorted into four gates, gDNA sequenced
Conditions: with HLA-A*02:01 with peptide … (NLV 2-1, the novel peptide), tetramers 1 µg/mL, 30 min on ice, SP, DP and SW gates expanded about 10 days between rounds ('two to three rounds of selection' in the Methods), gate SW: higher = more of the variant in the gate that binds the novel peptide and not the original one = switched binding. Fold enrichment of the CDR3 variant in one FACS gate of a two-tetramer stain, unresolved parent, parent is a CDR3 fragment, scale: fold enrichment, numbering: sequential-on-construct, sequence starts at 1
endpoint: enrichment
Number, no unit, nothing else.

Field request: enrichment | item: […] (CDR3 as printed); S10P derived by comparing it with the table's wild-type CDR3 ASSPTGGSPSPLH 0

Find the recorded enrichment belonging to […] (CDR3 as printed); S10M derived by comparing it with the table's wild-type CDR3 ASSPTGGSPSPLH and report it. 0

Item […] (CDR3 as printed); T5A derived by comparing it with the table's wild-type CDR3 ASSPTGGSPSPLH has what recorded enrichment? 0

Name the recorded enrichment for […] (CDR3 as printed); P11R derived by comparing it with the table's wild-type CDR3 ASSPTGGSPSPLH . 0

For […] (CDR3 as printed); S8Q derived by comparing it with the table's wild-type CDR3 ASSPTGGSPSPLH , what is its reported enrichment? 0

I would be grateful if you could share the reported enrichment for […] (CDR3 as printed); P9E derived by comparing it with the table's wild-type CDR3 ASSPTGGSPSPLH . 0

Fill in the blank: the reported enrichment of […] (CDR3 as printed); S3M derived by comparing it with the table's wild-type CDR3 ASSPTGGSPSPLH is ____. 0

Look up enrichment for this variant: […] (CDR3 as printed); H13F derived by comparing it with the table's wild-type CDR3 ASSPTGGSPSPLH 0

Fill in the blank: the reported enrichment of […] (CDR3 as printed); S3N derived by comparing it with the table's wild-type CDR3 ASSPTGGSPSPLH is ____. 0

Entry […] (CDR3 as printed); A1N derived by comparing it with the table's wild-type CDR3 ASSPTGGSPSPLH : reported enrichment = ? 0

I'd like to know its enrichment. The variant in question is […] (CDR3 as printed); P9Q derived by comparing it with the table's wild-type CDR3 ASSPTGGSPSPLH 0

Ref: paper PMC13397619
